Field: pIC50. Provide a value for each of the compounds that follow.
molecular target: Hypoxia-inducible factor 1-alpha (Homo sapiens) (UniProt Q16665); test: HIF-2a and HIF-1a reporter inhibition panel, dose response, selectivity assay for HIF-2a inhibitor project, cell-based, luminescence (AID 651581); conditions: HIF-1a, run 1
Sequence (Q16665 whole entry, looked up): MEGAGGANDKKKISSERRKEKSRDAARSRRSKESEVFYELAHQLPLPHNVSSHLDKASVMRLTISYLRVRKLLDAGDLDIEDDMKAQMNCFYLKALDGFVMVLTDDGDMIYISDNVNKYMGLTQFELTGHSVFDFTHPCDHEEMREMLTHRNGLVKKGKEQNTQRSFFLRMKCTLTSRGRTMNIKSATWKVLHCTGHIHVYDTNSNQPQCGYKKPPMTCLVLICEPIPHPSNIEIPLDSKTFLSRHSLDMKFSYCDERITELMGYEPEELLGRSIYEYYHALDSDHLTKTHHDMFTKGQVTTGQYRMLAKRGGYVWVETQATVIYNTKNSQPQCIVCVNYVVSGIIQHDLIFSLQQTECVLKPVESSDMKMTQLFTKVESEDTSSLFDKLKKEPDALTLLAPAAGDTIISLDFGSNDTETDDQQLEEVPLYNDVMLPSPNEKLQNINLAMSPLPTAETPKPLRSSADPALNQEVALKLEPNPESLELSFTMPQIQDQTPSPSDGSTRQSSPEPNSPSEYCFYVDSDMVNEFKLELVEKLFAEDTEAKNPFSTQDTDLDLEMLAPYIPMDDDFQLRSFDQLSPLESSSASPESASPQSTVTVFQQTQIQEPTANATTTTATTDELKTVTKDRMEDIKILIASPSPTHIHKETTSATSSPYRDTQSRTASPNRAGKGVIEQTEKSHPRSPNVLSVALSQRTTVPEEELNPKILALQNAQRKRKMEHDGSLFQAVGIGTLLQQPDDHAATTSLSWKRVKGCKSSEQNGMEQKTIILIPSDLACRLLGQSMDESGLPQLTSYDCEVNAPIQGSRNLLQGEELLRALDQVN
Give bare numbers, as −log10 of the molar value.

- Cc1c(CCC(=O)O)c(=O)oc2cc(OCc3ccccc3Br)ccc12: 5.09

Below are 6 compounds. Give each one its pIC50.
1. Nc1ccc(-c2cc3ccccc3c(=O)o2)cc1
2. CCN(CC)S(=O)(=O)c1ccc(NC(=O)c2cccnc2Cl)c(NC(=O)c2cccnc2Cl)c1
3. Cc1nc2cc(-c3ccccc3)nn2c(C)c1CCC(=O)N1CCN(c2ccccc2)CC1
4. O=C(O)c1cc(N/N=C/c2ccc3c(c2)OCCO3)ccc1Cl
5. O=C(Nc1ccc(N2CCOCC2)cc1)c1cnccn1
6. CC1(C)CC[C@]2(C(=O)O)CC[C@]3(C)C(=CC[C@@H]4[C@@]5(C)CC[C@H](O[C@@H]6O[C@H](C(=O)O)[C@@H](O)[C@H](O[C@@H]7OC[C@H](O)[C@H](O)[C@H]7O)[C@H]6O)C(C)(C)[C@@H]5CC[C@]43C)[C@@H]2C1

Given back:
1: 6.37; 2: 5.09; 3: 5.08; 4: 4.34; 5: 4.84; 6: 4.81

Below are 2 compounds. Give each one its pIC50.
1. CC(=O)Nc1ccc(OS(=O)(=O)c2ccc(C)cc2C)cc1
2. CC(=O)Nc1ccc(NC(=O)c2ccc(-c3ccnn3C)c3ccoc23)cc1

Given back:
4.55
5.41

====

target: Hypoxia-inducible factor 1-alpha (Homo sapiens) (UniProt Q16665); experiment: HIF-2a and HIF-1a reporter inhibition panel, dose response, selectivity assay for HIF-2a inhibitor project, cell-based, luminescence (AID 651581); settings: HIF-1a, mean of runs
Activity calls are given as the source filed them. How the calls were made is not given here.
The reply should name one outcome from YES (active), NO (inactive)

• C/C(=N/NC(=O)c1cc(C2CC2)[nH]n1)c1cccs1 = NO
• O=C(O)c1ccc2nc(-c3ccccc3)sc2c1 = NO
• O=C(Nc1ccc(F)cc1)c1nc(S(=O)(=O)Cc2ccccc2)ncc1Cl = NO

Read the next record carefully.
Asked: Which outcome was entered for the molecule "O=C1C=CC(=O)N1c1cccc(-c2ccccc2)c1" in this test?
Given back: YES

====

target: Endothelial PAS domain-containing protein 1 (Homo sapiens) (UniProt Q99814); assay: HIF-2a and HIF-1a reporter inhibition panel, dose response, selectivity assay for HIF-2a inhibitor project, cell-based, luminescence (AID 651581); details: HIF-2a PANC, mean of runs
Calls of active or inactive are those of the source. No rule for the calls is given here.
The reply should name one outcome from TRUE (active), FALSE (inactive)

Asked: Which outcome was entered for the compound "O=C(O)c1ccc2nc(-c3ccccc3)sc2c1" in this test?
Given back: TRUE

Asked: Which outcome was entered for the compound "COC(=O)Cc1ccc(NC(=O)c2ccc(C(C)(C)C)cc2)cc1" in this test?
Given back: FALSE

Asked: Which outcome was entered for the compound "Cc1ccc(C(C)C)c(OCc2ccc(C(=O)N/N=C/c3ccc(C(=O)O)cc3)cc2)c1" in this test?
Given back: TRUE

Asked: Which outcome was entered for the compound "CCNC(=O)NC(=O)COC(=O)CCCSc1nc2ccccc2s1" in this test?
Given back: TRUE

Asked: Which outcome was entered for the compound "CCOc1ccc(OCc2cccc(C(=O)N3CCOCC3)c2)cc1" in this test?
Given back: FALSE

Asked: Which outcome was entered for the compound "O=C(NNc1nc2ccccc2o1)c1ccccc1" in this test?
Given back: FALSE

Asked: Which outcome was entered for the compound "COc1ccc2nc(-c3ccc(N)cc3)[nH]c2c1" in this test?
Given back: TRUE

Asked: Which outcome was entered for the compound "COc1cccc(/C=N/Nc2ncccc2[N+](=O)[O-])c1OC" in this test?
Given back: TRUE

Asked: Which outcome was entered for the compound "Cc1c(CCC(=O)NCCC(=O)O)c(=O)oc2c(C)c3oc4c(c3cc12)CCCC4" in this test?
Given back: TRUE

Asked: Which outcome was entered for the compound "CC(=O)Nc1ccc(OCC(=O)c2ccc(C)cc2C)cc1" in this test?
Given back: TRUE

Asked: Which outcome was entered for the compound "c1c2c(cc3sc(N4CCOCC4)nc13)OCCO2" in this test?
Given back: TRUE

Asked: Which outcome was entered for the compound "CCOc1ccc2nc(SCc3ccc(CC(=O)O)cc3)c(C#N)cc2c1" in this test?
Given back: TRUE

Asked: Which outcome was entered for the compound "CC(C)(C)c1ccc(-c2noc(CCC(N)=O)n2)cc1" in this test?
Given back: TRUE

Asked: Which outcome was entered for the compound "N=c1nc(SCCC(=O)O)ss1" in this test?
Given back: FALSE

Asked: Which outcome was entered for the compound "COc1cc(N2C(=O)C=CC2=O)c(OC)cc1Cl" in this test?
Given back: FALSE

Asked: Which outcome was entered for the compound CCOc1ccc(C(=O)Nc2nnc(SCC(=O)NCC3CCCO3)s2)cc1 (centres undefined) in this test?
Given back: TRUE

Asked: Which outcome was entered for the compound "CC(=O)Nc1ccc(OS(=O)(=O)c2c(C)cc(C)cc2C)cc1" in this test?
Given back: FALSE

Asked: Which outcome was entered for the compound "CCS(=O)(=O)c1ncc(Cl)c(C(=O)Nc2ccc(C)cc2)n1" in this test?
Given back: TRUE

Asked: Which outcome was entered for the compound "COc1cccc(NC(=O)c2nc(S(C)(=O)=O)ncc2Cl)c1" in this test?
Given back: FALSE

Asked: Which outcome was entered for the compound "CC(=O)Nc1ccc(NC(=O)c2ccc(-c3ccnn3C)c3ccoc23)cc1" in this test?
Given back: TRUE

Asked: Which outcome was entered for the compound "Cc1ccc(C)c(S(=O)(=O)ON2C(=O)c3ccccc3C2=O)c1" in this test?
Given back: FALSE

Asked: Which outcome was entered for the compound CCN(CC)CCCC(C)n1c2nc(=O)[nH]c(=O)c-2nc2cc(Cl)ccc21 (centres undefined) in this test?
Given back: TRUE

Asked: Which outcome was entered for the compound "NNC(=O)c1cccc(COc2ccc3c(c2)CCC3)c1" in this test?
Given back: FALSE

Asked: Which outcome was entered for the compound "O=C(O)COc1ccc(-c2nccc(-c3ccccn3)n2)cc1" in this test?
Given back: TRUE
